# test_details: Determination of brain to plasma ratio in rat
# Assay type: in vivo
# test_context: brain and plasma, female Sprague Dawley rats, drug in brain over drug in plasma, read-out: Brain/Plasma Ratio of compound in Rat
measured_quantity: Kp
Respond using a number only.

Kindly indicate its recorded Kp. Item: C[C@@H](Oc1nnc(-c2ccc(C(N)=O)cc2)n1C)c1nnn(-c2cccc(Cl)c2)n1 [Example 10.2] 0.01

Give Kp for C[C@@H](Oc1nnc(-c2ccc(C(N)=O)cn2)n1C)c1nnn(-c2cccc(Cl)c2)n1 [Example 10.3] 0.075

Annotate the compound Cc1cccc(-n2nnc([C@@H](C)Oc3nnc(-c4ccc(C(N)=O)cn4)n3C)n2)c1 [Example 10.4] with its measured Kp. 0.09

Supply recorded Kp for C[C@@H](Oc1nnc(-c2ccc(C(N)=O)cc2)n1C)c1noc(-c2cccc(Cl)c2)n1 [Example 10.1] here. 0.03
